B1: FUT8 (parent)
chain: YPSYKVREKIETVKYPTYPEAEK

variants of: B1; experiment: protein stability index of a GFP-peptide fusion (GPS, HEK-293T) (PSI 1-6); higher = more stable; conditions: c terminus: native;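 note: lentivirally expressed fusions sorted by FACS into six bins by GFP to DsRed ratio, PSI derived from sequencing read proportions per bin multiplied by bin number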
Quick rule: protein stability index of at least 3 means y, below that means n.

Some solved cases for reference:
alteration: I10P
assigned_category: y
//
alteration: V13L
assigned_category: y
//
alteration: P19W
assigned_category: n

# input for lookup
Query string: Can T17V be said to have protein stability index at or above 3?
Result string: y
